TEST_SYSTEM: T1, recombinant CD3D&E protein (human CD3-his tag) (human, UniProt P04234 22-105; P07766 23-126, limits assumed)
T1 construct: Analyte in Biacore; also called CD3D&E-His; CD3d&ε-His
T1 sequence (P04234 22-105 limits assumed, chain 1 of 2): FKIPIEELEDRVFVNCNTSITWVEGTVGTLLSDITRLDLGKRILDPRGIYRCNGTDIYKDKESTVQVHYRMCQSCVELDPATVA
T1 sequence (P07766 23-126 limits assumed, chain 2 of 2): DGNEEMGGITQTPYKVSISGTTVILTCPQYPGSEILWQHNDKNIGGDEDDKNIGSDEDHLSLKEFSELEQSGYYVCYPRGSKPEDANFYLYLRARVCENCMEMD
TEST_DETAILS: SPR Biacore, Ab captured on Protein A;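 note: humanized antibodies on a Protein A chip, human CD3-his analyte flowed over in serial dilutions for 3 min, dissociation tracked 120–360 s on a Biacore T200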

BINDER: Hu192A7B9-9 (antibody, V domains shown, humanized mAb) VH: EVQLQESGPGLVKPSETLSLTCTVSGGSISSYNVHWVRQPPGKGLEWMGRMRYNGDTSYNSALKSRLTISRDTSKNQFSLKLSSVTAADTAVYYCARGPRGGYYSALFDYWGQGTMVTVSS VL: DIQMTQSPSSLSASVGDRVTITCKASQNINRYLNWYQQKPGKAPKLLISIANSLQTGVPSRFSGSGSGTDFTLTISSLQPEDFATYYCLQHNSWYTFGQGTKLEIK
Kd, nM: 92.7
--
BINDER: Hu192A7B9-7 (antibody, V domains shown, humanized mAb) VH: EVQLQESGPGLVKPSETLSLTCTVSGGSISSYNVHWIRQPPGKGLEWIGRMRYNGDTSYNSALKSRVTISVDTSKNQFSLKLSSVTAADTAVYYCARGPRGGYYSALFDYWGQGTMVTVSS VL: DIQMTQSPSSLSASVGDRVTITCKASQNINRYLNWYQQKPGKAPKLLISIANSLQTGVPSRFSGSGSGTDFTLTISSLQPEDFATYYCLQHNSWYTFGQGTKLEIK
Kd, nM: 79.6
